Assay comment: Total clearance in CD(SD) rat at 1 mg/kg, iv measured upto 25 hrs
Assay type: ADME, organism-based
Run conditions: in vivo
Readout type: clearance (mL/min/kg)

| Entry smiles | Readout type | Reading unit | Obs value |
| --- | --- | --- | --- |
| Cc1ccc([C@@H](NC(=O)[C@@H](F)c2ccc3c(c2)CCCC3)[C@@H](C)C(=O)O)cc1 | clearance | mL/min/kg | 0.5 |

====

Assay comment: Solubility of compound in FeSSIF at pH 5 incubated for 4 hrs by LC/MS analysis
Format: ADME
Item-by-item account of solubility at 4 h

| Compound | solubility at 4 h |
| --- | --- |
| Cc1ccc(C(CC(=O)O)NC(=O)Cc2ccc3c(c2)CCCC3)cc1 (stereo not drawn) | 469 µM |
| COc1ccc(S(=O)(=O)Nc2ccc(N3CCCCCC3)cc2C(=O)O)cc1 | 424 µM |
| Cc1ccc([C@@H](NC(=O)[C@@H](F)c2ccc3c(c2)CCCC3)[C@@H](C)C(=O)O)cc1 | 303 µM |

====

Measured remaining at 1 h, 5 µM of individual entries
Assay comment: Metabolic stability in rat liver microsomes assessed as parent compound remaining at 5 uM measured after 60 mins
Assay type: ADME, Microsome
Run conditions: read-out: Stability

| Compound | remaining at 1 h, 5 µM, % |
| --- | --- |
| Cc1ccc(C(CC(=O)O)NC(=O)Cc2ccc3c(c2)CCCC3)cc1 (stereo not drawn) | 95 |
| COc1ccc(S(=O)(=O)Nc2ccc(N3CCCCCC3)cc2C(=O)O)cc1 | 0 |
| Cc1ccc([C@@H](NC(=O)[C@@H](F)c2ccc3c(c2)CCCC3)[C@@H](C)C(=O)O)cc1 | 87 |

====

Assay comment: Metabolic stability in human liver microsomes assessed as parent compound remaining at 5 uM measured after 60 mins
Format: ADME, Microsome
Run conditions: read-out: Stability
Quick reference: remaining at 1 h, 5 µM of the listed items.
Readout type: remaining at 1 h, 5 µM (%)

| Molecule | Obs value |
| --- | --- |
| Cc1ccc(C(CC(=O)O)NC(=O)Cc2ccc3c(c2)CCCC3)cc1 (stereo not drawn) | 85 |
| Cc1ccc([C@@H](NC(=O)[C@@H](F)c2ccc3c(c2)CCCC3)[C@@H](C)C(=O)O)cc1 | 70 |
| COc1ccc(S(=O)(=O)Nc2ccc(N3CCCCCC3)cc2C(=O)O)cc1 | 0 |

====

Assay comment: AUC in CD(SD) rat at 3 mg/kg, po measured upto 25 hrs
Assay type: ADME, organism-based
Set-up: time < 25 hrs, dose 3 mg/kg, route po
Run conditions: in vivo
Readout type: AUC at 25 h (µM·h)

| Entry smiles | Obs value |
| --- | --- |
| Cc1ccc([C@@H](NC(=O)[C@@H](F)c2ccc3c(c2)CCCC3)[C@@H](C)C(=O)O)cc1 | 324 |

====

Assay comment: AUC in CD(SD) rat at 1 mg/kg, iv measured upto 25 hrs
Type: ADME, organism-based
Set-up: time < 25 hrs, dose 1 mg/kg, route iv
Run conditions: in vivo
Readout type: AUC at 25 h (µM·h)

| Entry smiles | Reading unit | Obs value |
| --- | --- | --- |
| Cc1ccc([C@@H](NC(=O)[C@@H](F)c2ccc3c(c2)CCCC3)[C@@H](C)C(=O)O)cc1 | µM·h | 79 |

====

pIC50 values for the compounds below.
System name: Keap1/Nrf2 (Homo sapiens)
Sequence (Q16236 whole entry, the tested form may be a part): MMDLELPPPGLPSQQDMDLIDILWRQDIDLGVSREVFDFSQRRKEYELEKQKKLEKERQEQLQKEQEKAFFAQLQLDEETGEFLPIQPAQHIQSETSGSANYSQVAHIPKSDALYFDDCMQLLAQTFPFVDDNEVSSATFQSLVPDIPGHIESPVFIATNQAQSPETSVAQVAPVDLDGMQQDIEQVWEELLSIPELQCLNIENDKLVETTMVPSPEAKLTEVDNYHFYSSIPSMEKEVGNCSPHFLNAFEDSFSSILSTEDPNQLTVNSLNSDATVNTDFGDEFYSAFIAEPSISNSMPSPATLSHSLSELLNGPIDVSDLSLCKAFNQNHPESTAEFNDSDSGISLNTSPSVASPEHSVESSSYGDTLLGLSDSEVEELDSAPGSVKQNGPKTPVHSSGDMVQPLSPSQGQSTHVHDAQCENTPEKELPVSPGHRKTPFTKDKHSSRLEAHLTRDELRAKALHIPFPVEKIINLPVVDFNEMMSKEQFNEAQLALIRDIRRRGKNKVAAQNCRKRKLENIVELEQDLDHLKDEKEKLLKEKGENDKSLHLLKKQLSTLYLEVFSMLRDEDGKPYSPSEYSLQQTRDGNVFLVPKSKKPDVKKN
Sequence (Q14145 whole entry, the tested form may be a part): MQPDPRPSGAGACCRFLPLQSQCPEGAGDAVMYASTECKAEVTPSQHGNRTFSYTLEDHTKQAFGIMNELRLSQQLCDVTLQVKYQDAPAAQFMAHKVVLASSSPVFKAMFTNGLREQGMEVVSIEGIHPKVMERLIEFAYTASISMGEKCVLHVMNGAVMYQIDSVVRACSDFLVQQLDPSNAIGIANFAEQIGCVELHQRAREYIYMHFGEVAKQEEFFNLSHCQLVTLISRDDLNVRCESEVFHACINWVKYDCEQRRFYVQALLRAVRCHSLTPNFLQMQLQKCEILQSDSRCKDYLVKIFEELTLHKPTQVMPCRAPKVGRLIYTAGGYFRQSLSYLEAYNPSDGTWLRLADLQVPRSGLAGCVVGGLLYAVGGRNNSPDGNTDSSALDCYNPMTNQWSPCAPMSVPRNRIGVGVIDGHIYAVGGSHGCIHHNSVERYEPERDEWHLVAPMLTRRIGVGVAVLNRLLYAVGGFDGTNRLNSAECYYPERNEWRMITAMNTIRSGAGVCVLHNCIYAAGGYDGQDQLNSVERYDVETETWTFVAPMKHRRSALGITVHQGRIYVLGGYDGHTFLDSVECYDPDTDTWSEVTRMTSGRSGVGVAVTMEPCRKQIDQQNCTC
Assay comment: Inhibition of Nrf2-Keap1 Kelch domain (unknown origin) protein-protein interaction in presence of biotin labeled 16mer ETGE peptide AFFAQLQLDEETGEFL
pIC50: −log10 of the molar value.

| Compound | System name | Inequality sign | pIC50 |
| --- | --- | --- | --- |
| Cc1ccc([C@@H](NC(=O)C(=O)c2ccccc2)[C@@H](C)C(=O)O)cc1 | Keap1/Nrf2 (Homo sapiens) | < | 4.00 |
| Cc1ccc([C@@H](NC(=O)[C@H](O)c2ccccc2)[C@@H](C)C(=O)O)cc1 | Keap1/Nrf2 (Homo sapiens) | < | 4.00 |
| Cc1ccc(C(NC(=O)Cc2ccc3c(c2)CCCC3)C(C)(C)C(=O)O)cc1 (stereo not drawn) | Keap1/Nrf2 (Homo sapiens) | = | 4.77 |
| CO[C@H](C(=O)N[C@H](c1ccc(C)cc1)[C@@H](C)C(=O)O)c1ccccc1 | Keap1/Nrf2 (Homo sapiens) | < | 4.00 |
| Cc1ccc([C@@H](NC(=O)Cc2ccccc2)[C@@H](C)C(=O)O)cc1 | Keap1/Nrf2 (Homo sapiens) | = | 4.17 |
| Cc1ccc([C@@H](NC(=O)[C@@H](F)c2ccccc2)[C@@H](C)C(=O)O)cc1 | Keap1/Nrf2 (Homo sapiens) | = | 5.46 |
| Cc1ccc([C@@H](NC(=O)[C@H](F)c2ccccc2)[C@@H](C)C(=O)O)cc1 | Keap1/Nrf2 (Homo sapiens) | = | 4.05 |
| Cc1ccc([C@@H](NC(=O)Cc2ccc3c(c2)CCCC3)[C@H](C)C(=O)O)cc1 | Keap1/Nrf2 (Homo sapiens) | = | 4.29 |
| Cc1ccc([C@@H](NC(=O)[C@@H](O)c2ccccc2)[C@@H](C)C(=O)O)cc1 | Keap1/Nrf2 (Homo sapiens) | = | 4.02 |
| CO[C@@H](C(=O)N[C@H](c1ccc(C)cc1)[C@@H](C)C(=O)O)c1ccccc1 | Keap1/Nrf2 (Homo sapiens) | = | 4.08 |
| Cc1ccc([C@@H](NC(=O)Cc2ccc3c(c2)CCCC3)[C@@H](C)C(=O)O)cc1 | Keap1/Nrf2 (Homo sapiens) | = | 5.55 |
| Cc1ccc([C@@H](CC(=O)O)NC(=O)Cc2ccc3c(c2)CCCC3)cc1 | Keap1/Nrf2 (Homo sapiens) | < | 4.00 |
| Cc1ccc(C(NC(=O)Cc2ccc3c(c2)CCCC3)C2(C(=O)O)CC2)cc1 (stereo not drawn) | Keap1/Nrf2 (Homo sapiens) | = | 4.27 |
